The reported measurements were obtained from ChEMBL document CHEMBL2331378.

List of pIC50 tested on Acetylcholinesterase (Homo sapiens, UniProt P22303).
Sequence (P22303 whole entry): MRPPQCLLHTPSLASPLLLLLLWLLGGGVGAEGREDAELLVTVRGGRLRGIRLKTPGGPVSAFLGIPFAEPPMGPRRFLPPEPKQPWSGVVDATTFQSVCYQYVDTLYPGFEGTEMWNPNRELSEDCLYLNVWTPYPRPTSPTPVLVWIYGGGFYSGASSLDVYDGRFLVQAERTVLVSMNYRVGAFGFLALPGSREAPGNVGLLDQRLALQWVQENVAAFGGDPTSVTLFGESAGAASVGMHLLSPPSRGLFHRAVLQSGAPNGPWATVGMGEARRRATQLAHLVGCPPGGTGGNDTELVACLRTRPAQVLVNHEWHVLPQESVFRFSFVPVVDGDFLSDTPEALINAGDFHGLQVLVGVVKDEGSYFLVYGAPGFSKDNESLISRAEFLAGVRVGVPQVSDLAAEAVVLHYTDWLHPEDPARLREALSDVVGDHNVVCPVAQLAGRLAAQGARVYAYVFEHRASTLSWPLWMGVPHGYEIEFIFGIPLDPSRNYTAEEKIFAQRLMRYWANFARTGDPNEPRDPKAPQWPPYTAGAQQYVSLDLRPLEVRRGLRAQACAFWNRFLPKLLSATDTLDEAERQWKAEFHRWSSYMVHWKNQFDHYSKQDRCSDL
Interpret pIC50 as the negative base-10 log of the concentration measured in mol/L.

A selection of reference data follows.
Compound | Result number
COc1ccccc1/C=C1\CN(C(=O)C[C@H]2C[C@H]3CCCN3[C@]23C(=O)Nc2ccccc23)C[C@@]2(C[C@H]3CCCN3[C@@]23C(=O)Nc2ccccc23)C1=O (racemic) | 4.94
C=CC(=O)N1C/C(=C\c2ccc(Cl)cc2)C(=O)/C(=C/c2ccc(Cl)cc2)C1 | 4.66
O=C1/C(=C/c2ccccc2)CN(C(=O)C[C@H]2C[C@H]3CCCN3[C@]23C(=O)Nc2ccccc23)C/C1=C\c1ccccc1 (racemic) | 4.76
C=CC(=O)N1C/C(=C\c2cccc([N+](=O)[O-])c2)C(=O)/C(=C/c2cccc([N+](=O)[O-])c2)C1 | 5.01

Short answer please: pIC50, Acetylcholinesterase (Homo sapiens, UniProt P22303), entry O=C(C[C@H]1C[C@H]2CCCN2[C@]12C(=O)Nc1ccccc12)N1C/C(=C\c2cccc([N+](=O)[O-])c2)C(=O)[C@]2(C[C@H]3CCCN3[C@@]23C(=O)Nc2ccccc23)C1 (racemic)
4.58

Recall the recorded pIC50 for O=C1/C(=C/c2cccc3ccccc23)CN(C(=O)C[C@H]2C[C@H]3CCCN3[C@]23C(=O)Nc2ccccc23)C/C1=C\c1cccc2ccccc12 (racemic) with Acetylcholinesterase (Homo sapiens, UniProt P22303) and state it.
5.17
